Test system: MDCK cells co-expressing GFP-K-RASG12V and mCherry-CAAX
protocol.text: Cytotoxicity in mislocalization screen (death of all cells in well)
experimental.conditions: drug caused death of all cells in well at 30 μM
observed.property: Cytotoxic at 30 μM

Would you please look over these solved cases?
molecule	recorded.result
Cc1nnc([C@H](NCC=C(c2ccccc2)c2ccccc2)c2ccccc2)o1	No
COc1ccc([C@H](C)N(CC=C(c2ccccc2)c2ccccc2)CCN2CC2)cc1	No
COc1ccc([C@H](C)N(CC=C(c2ccccc2)c2ccccc2)CCN(C)C)cc1	No
O=C(c1ccc(F)cc1)N(CC=C(c1ccccc1)c1ccccc1)CCN1CCCC1	Yes
OC[C@H](c1ccccc1)N(CC=C(c1ccccc1)c1ccccc1)CC=C(c1ccccc1)c1ccccc1 [AVA72, reference compound]	No
COc1ccc([C@@H](C)N(CC=C(c2ccccc2)c2ccccc2)CCCCO)cc1	Yes
COc1ccc(-c2cc(C(=O)N(CCN3CCCC3)[C@H](C)c3ccc(F)cc3)no2)cc1	Yes
C[C@H](c1ccc(F)cc1)N(CC=C(c1ccccc1)c1ccccc1)CCn1ccc2cccnc21	No

Consider now this further molecule.
// Cytotoxic at 30 μM lookup, key: COc1ccc([C@H](C)N(CC=C(c2ccccc2)c2ccccc2)CCN2CCN(C)CC2)cc1
Yes

* * *

Assignment: determine reported IC50 for the given compounds.
Tested on: Ishikawa (WT) endometrial tumor cells
protocol.text: CyQUANT proliferation assay
Assay type: cell-based
experimental.conditions: Homo sapiens, Ishikawa; Table 11, endometrial; read-out: IC50 (μM) Ishikawa (WT)

Looking for the measured IC50 of COc1ccc([C@@H](C)N(CC=C(c2ccccc2)c2ccccc2)CCN2CCN(C)CC2)cc1 , can you help?
> 30 µM

Consider next the compound COc1ccc([C@@H](C)N(CC=C(c2ccccc2)c2ccccc2)CCCN2CCN(C)CC2)cc1 in the same way.
11 µM

Same for CC(NCCC(c1ccccc1)c1ccccc1)c1ccccc1 (stereo not drawn)
> 30 µM

* * *

tgt: mGFP-K-RASG12V (Homo sapiens (Human), UniProt P01116, G12V)
protocol.text: K-Ras mislocalization assay (confocal microscopy, Manders coefficient)
Assay type: cell-based
Parameters: key: Manders coefficient: fraction of mCherry-CAAX co-localizing with GFP-K-Ras
experimental.conditions: maximal effect, Manders coefficient; MDCK cells, 48 h
Kindly supply the reported Emax values for the records listed here.
# answer = number (no unit)

Fill in: Emax of C[C@@H](NCCN1c2ccccc2Sc2ccccc21)c1ccccc1 is ___
0.842

# repeat for O=C(/C=C/c1ccccc1)N(CC=C(c1ccccc1)c1ccccc1)CCN1CCCC1
0.549

And then C[C@H](c1ccc(F)cc1)N(CCN1CCCC1)C(=O)c1cc(-c2ccccc2)ccn1 , what is it?
0.767

Also O=C(c1cc(-c2ccc(Cl)cc2)on1)N(CC=C(c1ccccc1)c1ccccc1)CCN1CCCC1 , if possible.
0.324

What about C[C@H](c1ccc(Cl)cc1)N(CC=C(c1ccccc1)c1ccccc1)CCN1CCCC1 ?
0.553

Then this compound: COc1ccc([C@@H](C)N(CC=C(c2ccccc2)c2ccccc2)CCN2CCN(S(C)(=O)=O)CC2)cc1
0.851

Cool, now COc1ccc(NC(=O)N(CC=C(c2ccccc2)c2ccccc2)[C@H](C)c2ccc(OC)cc2)cc1
0.622

Next up: COc1ccc([C@@H](C)N(CC=C(c2ccccc2)c2ccccc2)C(=O)CN2CCN(C)CC2)cc1
0.514

Please answer likewise for COc1ccc([C@@H](C)N(C/C=C/c2ccccc2)CCN2CCN(C)CC2)cc1
0.84

Please do the same for CCCN1CCN(CCN(CC=C(c2ccccc2)c2ccccc2)[C@H](C)c2ccc(OC)cc2)CC1 as well.
0.75

Next: COc1ccccc1[C@@H](C)N(CC=C(c1ccccc1)c1ccccc1)CCN1CCN(C)CC1
0.861

Input COc1ccc([C@@H](C)N(CC=C(c2ccccc2)c2ccccc2)CC(=O)O)cc1
0.522

Try the compound COC(=O)c1cn(CCN(CC=C(c2ccccc2)c2ccccc2)[C@H](C)c2ccc(F)cc2)nn1
0.628

// repeat for COC(=O)CN(CC=C(c1ccccc1)c1ccccc1)[C@H](C)c1ccc(OC)cc1 and report
0.705

Now consider COC(=O)[C@@H](c1ccccc1)N(CC=C(c1ccccc1)c1ccccc1)CC=C(c1ccccc1)c1ccccc1 .
0.424

And the next one, C[C@@H](NCCN1c2ccccc2CCc2ccccc21)c1ccccc1 ?
0.452

Let us now turn to CCN(CC)CCN(CC=C(c1ccccc1)c1ccccc1)[C@H](C)c1ccc(OC)cc1
0.887

* * *

tgt: mGFP-K-RASG12V (Homo sapiens (Human), UniProt P01116, G12V)
protocol.text: K-Ras mislocalization assay (confocal microscopy, Manders coefficient)
Format: cell-based
experimental.conditions: MDCK cells, 48 h treatment; listed as 12a; read-out: IC50 (μM), KRASG12V mislocalization
observed.property: IC50 (µM)
Report the value in µM with no unit label.

Requested field: IC50. Item: COc1ccc([C@@H](C)N(CC=C(c2ccccc2)c2ccccc2)CCN(C)C)cc1 [NY0435]
11.2

* * *

Tested on: CaCO-2 (WT) colon tumor cells
protocol.text: CyQUANT proliferation assay
Assay type: cell-based
experimental.conditions: Table 11, colon; read-out: IC50 (μM) Caco-2 (WT)
observed.property: IC50

Give the measured IC50 of COc1ccc([C@@H](C)N(CC=C(c2ccccc2)c2ccccc2)CC=C(c2ccccc2)c2ccccc2)cc1 [Compound 7, reference compound] .
> 30 µM

* * *

Test system: NCI-H1299 (WT) lung tumor cells
protocol.text: CyQUANT proliferation assay
Type: cell-based
experimental.conditions: Table 11, lung; read-out: IC50 (μM) NCI H1299 (WT)
observed.property: IC50

Look up IC50 for this compound: COc1ccc([C@@H](C)N(CC=C(c2ccccc2)c2ccccc2)CC=C(c2ccccc2)c2ccccc2)cc1 [Compound 7, reference compound]
> 30 µM

* * *

tgt: mGFP-K-RASG12V (Homo sapiens (Human), UniProt P01116, G12V)
protocol.text: K-Ras mislocalization assay (confocal microscopy, Manders coefficient)
Assay type: cell-based
experimental.conditions: MDCK cells, 48 h treatment; listed as 11b; read-out: IC50 (μM), KRASG12V mislocalization
observed.property: IC50 (µM)
State the answer as a number, implicitly in µM.

# IC50 lookup, item CCN(CC=C(c1ccccc1)c1ccccc1)[C@H](C)c1ccc(OC)cc1
10.6

* * *

tgt: mGFP-K-RASG12V (Homo sapiens (Human), UniProt P01116, G12V)
protocol.text: K-Ras mislocalization assay (confocal microscopy, Manders coefficient)
Assay type: cell-based
Design: key: Manders coefficient: fraction of mCherry-CAAX co-localizing with GFP-K-Ras
experimental.conditions: maximal effect, Manders coefficient; MDCK cells, 48 h
Short version: Emax at least 0.8 is class 1, less is class 0.

Hi team, for NC(=O)[C@H](NCC=C(c1ccccc1)c1ccccc1)c1ccccc1 [NY0569] , is the recorded Emax at or above 0.8?
class 0

C=CC(=O)N1CCN(CCN(CC=C(c2ccccc2)c2ccccc2)[C@H](C)c2ccc(OC)cc2)CC1 [NY0357a] ?
class 0

What about COc1ccc([C@@H](C)N(CC=C(c2ccccc2)c2ccccc2)CCN2CCN(C(=O)Oc3ccccc3)CC2)cc1 [NY353] ?
class 1

Check COc1ccc([C@H](C)N(CC=C(c2ccccc2)c2ccccc2)CCN(C)C)cc1 [NY0434] too.
class 1

Continue with C[C@H](c1ccc(F)cc1)N(C/C=C(/c1ccccc1)c1ccc(OC(F)(F)F)cc1)CCN1CCCC1 [PW361]
class 0

Likewise for COc1cc(C(=CCN(CCN2CCCC2)[C@H](C)c2ccc(F)cc2)c2cc(OC)c(OC)c(OC)c2)cc(OC)c1OC [PW358] ?
class 1

Try the compound C[C@H](c1ccc(F)cc1)N(CC=C(c1ccccc1)c1ccccc1)CCn1cc(CN(C)C)nn1 [PW306]
class 0

Now try OC[C@H](c1ccccc1)N(CC=C(c1ccccc1)c1ccccc1)CC=C(c1ccccc1)c1ccccc1 [AVA72, reference compound] .
class 0

Continue with C[C@H](c1ccc(F)cc1)N(CC=C(c1ccccc1)c1ccccc1)CCN1CCN(C)CC1 [NY0505]
class 1

Proceed to COc1ccc([C@@H](C)N(C)CC=C(c2ccccc2)c2ccccc2)cc1 [NY0218]
class 0

// next record COc1ccc([C@@H](C)N(CC=C(c2ccccc2)c2ccccc2)CCCO)cc1 [NY0479]
class 1

Another compound to check: C[C@@H](NCC(=O)N1c2ccccc2Sc2ccccc21)c1ccccc1 [NY0572]
class 0

Same lookup for C(CN1CCN(c2ccccc2)CC1)=C(c1ccccc1)c1ccccc1 [NY307, 1-(3,3-diphenylallyl)-4-phenylpiperazine] , please.
class 1

Also check C[C@@H](NCC(=O)N1c2ccccc2Sc2ccccc21)c1ccc(F)cc1 [NY0573]
class 0

And for C=CCN(CC=C(c1ccccc1)c1ccccc1)[C@H](C)c1ccc(OC)cc1 [NY0217] ?
class 0

Can you check C(CN1CCc2ccccc2C1)=C(c1ccccc1)c1ccccc1 [NY0221] next?
class 0
